Values from patent US20050089524A1

- tested on: T1, C5a receptor (C5aR) expressed on the surface of human PMNs (human, UniProt P21730 1-350)
- T1 construct: whole, on cells; also called C5aRs
- T1 sequence (looked up): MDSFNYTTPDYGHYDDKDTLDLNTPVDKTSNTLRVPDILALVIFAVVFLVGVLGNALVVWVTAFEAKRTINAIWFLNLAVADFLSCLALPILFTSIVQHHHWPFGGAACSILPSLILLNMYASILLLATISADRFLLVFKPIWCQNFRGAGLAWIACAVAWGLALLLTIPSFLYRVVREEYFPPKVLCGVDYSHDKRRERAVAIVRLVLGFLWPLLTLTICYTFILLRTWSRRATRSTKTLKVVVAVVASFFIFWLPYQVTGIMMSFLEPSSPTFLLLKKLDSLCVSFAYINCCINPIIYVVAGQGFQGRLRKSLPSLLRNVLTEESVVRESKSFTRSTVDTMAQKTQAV
- assay protocol: competition with 125I-C5a on intact human PMNs; concentration giving 50% inhibition of 125I-C5a binding
observed property: EC50 (nM)
Give bare numbers, in nM.

Request: EC50 for natural C5a (ligand, UniProt P01031 678-751, looked up) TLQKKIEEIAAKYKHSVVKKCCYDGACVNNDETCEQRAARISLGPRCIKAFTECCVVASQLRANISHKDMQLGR ?
Result: 0.4
